system: Setaria faberi (SETFA); test: Post-emergence efficacy, glasshouse, evaluated after 13 days; format: in vivo; details: Setaria faberi, 312 h; post-emergence application, 500 g/Ha, evaluated after 13 days; read-out: Control of weed species SETFA (100=total damage to plant; 0=no damage to plant)
assay readout: pest or weed control at 500 g/ha

> print(dat)
                           structure.string  observed
1    CCCCNC(=O)c1cc[n+](CCS(=O)(=O)[O-])nc1       60%
2   CC(C)N(C)C(=O)c1cc[n+](CCS(=O)(=O)O)nc1       60%
3  O=C(NCC(F)(F)F)c1cc[n+](CCS(=O)(=O)[O-])nc1       60%
